Experimental target: T1, APC9291-AA
T1 chain: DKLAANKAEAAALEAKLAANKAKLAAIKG
Assay explanation: two-hybrid library CCmax;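 also: natural log of median RNA to DNA barcode read ratio; higher means stronger binding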
Condition notes: mean of both orientations
Measurement type: interaction score

- Binder: "DELAAEEAELAAIEAELAANEAELAANEG [APC6088-AA]"
  interaction score: -1.58
- Binder: "DKLAAIKAKLAANKAELAANEAKLAAEKG [APC1987-AA]"
  interaction score: -1.88
- Binder: "DEAAALEAELAANEAKLAAIKAKLAAIKG [APC2811-AA]"
  interaction score: -1.78

Now look at this entry.
Entry under test: DEAAALEAKNAALKAENAALEAKAAALKG [APC2543-AA] . Its interaction score was -1.67
